- system: UniProt:P23385
- protocol: Compound was evaluated for agonistic activity against mGluR1 alpha metabotropic receptor subtype in rat cortical slice model
quantity.kind: EC50

Quick one: EC50 of O=C(O)C(NCc1ccccc1)c1cc(O)no1 (stereo not given) ? > 1000 µM

---

Measured EC50 accompanies every entry in the list below.
- system: Metabotropic glutamate receptor 1 (Rattus norvegicus, UniProt P23385)
- Sequence (P23385 whole entry): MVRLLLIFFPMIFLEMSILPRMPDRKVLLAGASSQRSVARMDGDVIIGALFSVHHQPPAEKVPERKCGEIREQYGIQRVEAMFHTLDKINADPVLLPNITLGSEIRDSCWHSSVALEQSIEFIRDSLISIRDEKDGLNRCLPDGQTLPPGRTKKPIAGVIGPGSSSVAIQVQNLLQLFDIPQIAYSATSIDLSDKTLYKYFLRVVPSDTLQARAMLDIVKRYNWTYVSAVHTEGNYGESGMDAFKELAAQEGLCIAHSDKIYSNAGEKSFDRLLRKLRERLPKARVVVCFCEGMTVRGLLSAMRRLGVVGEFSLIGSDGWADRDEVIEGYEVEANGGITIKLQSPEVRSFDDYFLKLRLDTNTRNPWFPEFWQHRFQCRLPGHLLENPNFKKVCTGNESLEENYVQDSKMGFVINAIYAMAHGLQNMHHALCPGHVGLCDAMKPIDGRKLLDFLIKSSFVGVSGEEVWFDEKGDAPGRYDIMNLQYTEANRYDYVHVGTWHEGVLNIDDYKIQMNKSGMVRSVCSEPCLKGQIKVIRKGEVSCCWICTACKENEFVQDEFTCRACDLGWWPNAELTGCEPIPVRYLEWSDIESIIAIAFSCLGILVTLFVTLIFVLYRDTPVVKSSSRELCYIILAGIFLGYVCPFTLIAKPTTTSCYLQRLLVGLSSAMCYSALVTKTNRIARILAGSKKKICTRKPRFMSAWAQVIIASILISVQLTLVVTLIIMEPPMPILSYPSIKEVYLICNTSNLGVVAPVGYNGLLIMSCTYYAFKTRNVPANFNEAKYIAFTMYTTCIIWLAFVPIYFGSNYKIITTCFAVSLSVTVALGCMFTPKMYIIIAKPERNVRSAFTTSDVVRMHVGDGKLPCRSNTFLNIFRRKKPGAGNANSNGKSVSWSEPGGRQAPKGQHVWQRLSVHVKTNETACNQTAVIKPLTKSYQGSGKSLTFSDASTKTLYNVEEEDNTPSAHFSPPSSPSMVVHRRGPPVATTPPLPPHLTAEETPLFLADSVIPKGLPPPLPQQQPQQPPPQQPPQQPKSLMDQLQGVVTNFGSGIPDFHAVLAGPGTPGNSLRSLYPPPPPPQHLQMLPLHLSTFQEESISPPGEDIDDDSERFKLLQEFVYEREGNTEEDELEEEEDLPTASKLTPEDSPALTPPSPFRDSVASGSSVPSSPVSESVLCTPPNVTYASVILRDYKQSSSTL
- protocol: Compound was evaluated for agonistic activity against mGluR1 alpha metabotropic receptor subtype in rat cortical slice model

Some molecules with recorded EC50:
CNC(C(=O)O)c1cc(O)no1 (centres undefined) : > 1000 µM
Cc1onc(O)c1C(N)C(=O)O (centres undefined) : > 1000 µM

Which measured EC50 belongs to CCNC(C(=O)O)c1cc(O)no1 (centres undefined) , tested on Metabotropic glutamate receptor 1 (Rattus norvegicus, UniProt P23385)? > 1000 µM

Which measured EC50 belongs to NC(C(=O)O)c1cc(O)no1 (centres undefined) , tested on Metabotropic glutamate receptor 1 (Rattus norvegicus, UniProt P23385)? 43 µM

Where these numbers come from: ChEMBL document CHEMBL1130847
